Data credit: patent US8889638B2

Quick list: rate constant of conversion with an excess of H2O2 per entry.
assay-summary: Cleavage of boronic ester/acid protected compounds by H2O2 (UV-Vis, rate constant, HPLC)
Type: physicochemical
reported-conditions: pseudo-first order conditions, HEPES buffer
experimental-readout: rate constant of conversion with an excess of H2O2 (M⁻¹ s⁻¹)

compound	experimental-result
Cc1occc(=O)c1OC(=O)OCc1ccc(B2OC(C)C(C)(C)O2)cc1 (stereo not shown)	6.7
O=c1ccccn1OCc1ccc(B(O)O)cc1	5.9
Cc1occc(=O)c1OCc1ccc(B2OC(C)(C)C(C)(C)O2)cc1	2.9
CC1(C)OB(c2ccc(COn3ccccc3=O)cc2)OC1(C)C	4.0
